assay: Population PK; parameters: species or system human; settings: male, human, plasma, oral
PARAMETER: Vd/F (L)
Field: numeric (L). Do not append units.

[Q] What does the record list as Vd/F for N=C(N)Nc1ccc(C(=O)Oc2ccc(CC(=O)O)cc2)cc1 [GBPA] ?
[A] 904

====

assay type: in vivo, human; conditions: male, human, plasma, po, 600 mg, Cmax, Cohort 2, Day 1, 30 min before a meal; 600 mg camostat mesylate oral; mean (SD)
PARAMETER: Cmax (ng/mL)
Field: numeric (ng/mL). Do not append units.

[Q] What does the record list as Cmax for N=C(N)Nc1ccc(C(=O)Oc2ccc(CC(=O)O)cc2)cc1 ?
[A] 177
